Data origin, for the record: PubChem BioAssay

Attribute: composite z-score
Tested on: XIP peptide (Xip251-270) binding
Procedure Summary: small-molecule binders of XIP peptide, primary screen, biochemical, small-molecule microarray, fluorescence 635/667 nm, 0.1 µg/mL protein (AID 1182)
Details: fluorescent protein binding, 635 nm, higher = more signal, called active from +8 up or from −8 down
Calls of active or inactive are those of the source.

Fill blank: measured composite z-score of the compound C[C@@H](c1ccccc1)N1C(=O)[C@H]2[C@H]3[C@H](O)[C@H](O)CC(=NO[C@@H]4O[C@H](CO)[C@@H](O)[C@H](O)[C@H]4O)[C@H]3CC[C@H]2C1=O is ____.
-0.0033 (inactive)

Fill blank: measured composite z-score of the compound C#CCCCON=C1C[C@@H](O)[C@@H](O)[C@@H]2[C@@H]3C(=O)N(C(C)(C)C)C(=O)[C@@H]3CC[C@H]12 is ____.
-0.217 (inactive)

Fill blank: measured composite z-score of the compound O=C1C=C[C@@H](O)[C@@H]2[C@@H]3C(=O)N(C[C@@H]4CCCO4)C(=O)[C@@H]3CC[C@@H]12 is ____.
0.179 (inactive)

Fill blank: measured composite z-score of the compound C[C@@H](c1ccccc1)N1C(=O)[C@H]2[C@H]3[C@H](O)[C@H](O)CC(=O)[C@H]3CC[C@H]2C1=O is ____.
-0.286 (inactive)

Fill blank: measured composite z-score of the compound C=CC[C@@H]1C=C[C@H](ON=C(C)CCC(=O)OC[C@H]2O[C@H](c3ccccc3)C=C[C@@H]2Oc2ccc(OC)cc2)[C@@H](CO)O1 is ____.
0.0195 (inactive)
